Values were extracted from patent US10501460B2.

Recorded IC50, one value per entry.
Tested on: MV-4-11
experimental details: Oncology cell growth assay MV-4-11 (CellTiter Glo, 72 hours)
Assay type: cell-based
cond: Homo sapiens, MV4-11, 72 h; MV-4-11 cell growth inhibitory activity, 3d

Solved cases (10 shown):
INSERT INTO measurements (molecule, recorded_value) VALUES
  ('CCc1[nH]c2ncc(-c3c(C)noc3C)cc2c1C(O)c1cccc(OC(F)(F)F)c1 (stereo not drawn)', '1 to 10 µM'),
  ('Cc1noc(C)c1-c1cnc2c(-c3cnn(C)c3)cn(Cc3ccccn3)c2c1', '≤ 1 µM'),
  ('Cc1cc2cc(-c3c(C)noc3C)cnc2[nH]1', '1 to 10 µM'),
  ('CCOC(=O)C(c1ccccc1)n1cc(-c2cnn(C)c2)c2ncc(-c3c(C)noc3C)cc21 (stereo not drawn)', '≤ 1 µM'),
  ('Cc1noc(C)c1-c1cnc2ccn(S(=O)(=O)C3CCCC3)c2c1', '≤ 1 µM'),
  ('Cc1noc(C)c1-c1cnc2[nH]cc(C(=O)C3CCSCC3)c2c1', '1 to 10 µM'),
  ('COc1ccc(S(=O)(=O)n2ccc3ncc(-c4c(C)noc4C)cc32)cc1', '1 to 10 µM'),
  ('Cc1noc(C)c1-c1cnc2c(-c3cnn(C)c3)cn(C(CF)c3ccccc3)c2c1 (stereo not drawn)', '≤ 1 µM'),
  ('[2H]C([2H])(C1CC(F)(F)C1)n1cc(-c2cnn(C)c2)c2ncc(-c3c(C)noc3C)cc21', '≤ 1 µM'),
  ('COc1ncc(F)cc1Cc1c[nH]c2ncc(-c3c(C)noc3C)cc12', '≤ 1 µM');

# input Param item = "Cc1noc(C)c1-c1cnc2c(-c3ccccc3)cn(S(=O)(=O)c3ccccc3)c2c1" ; retrieve measured IC50.
# output 1 to 10 µM

# input Please look up its IC50: COC(c1ccc(C(F)(F)F)nc1)c1c[nH]c2ncc(-c3c(C)noc3C)cc12 (stereo not drawn)
# output ≤ 1 µM

# input Fill in the blank: the reported IC50 of Cc1noc(C)c1-c1cnc2c(-c3cnn(C)c3)cn(C(CC#N)C3CCCC3)c2c1 (stereo not drawn) is ____.
# output ≤ 1 µM

# input Recorded IC50 of "Cc1noc(C)c1-c1cnc2[nH]cc(Sc3cccc(F)c3)c2c1" , please.
# output 1 to 10 µM

# input IC50 lookup needed for "[2H]C([2H])(C1CCC(F)(F)CC1)n1cc(-c2cnn(C)c2)c2ncc(-c3c(C)noc3C)cc21" , thanks.
# output ≤ 1 µM

# input Fill in: IC50 of Cc1noc(C)c1-c1cnc2[nH]cc(C=C3CC[S+]([O-])CC3)c2c1 (stereo not drawn) is ___
# output 1 to 10 µM

# input # lookup: IC50 of "[2H]C([2H])([2H])n1cc(CC2CCC(F)(F)CC2)c2cc(-c3c(C)noc3C)cnc21"
# output 1 to 10 µM

# input If you can, please state the reported IC50 value of COC(c1c[nH]c2ncc(-c3c(C)noc3C)cc12)C1CCC(F)(F)CC1 (stereo not drawn) .
# output ≤ 1 µM
